- studySystem: T1, human FLT3 (hFLT3) (human, UniProt P36888 27-543)
- T1 construct: also called huFlt3; Fms-Like Tyrosine Kinase 3
- T1 sequence (looked up): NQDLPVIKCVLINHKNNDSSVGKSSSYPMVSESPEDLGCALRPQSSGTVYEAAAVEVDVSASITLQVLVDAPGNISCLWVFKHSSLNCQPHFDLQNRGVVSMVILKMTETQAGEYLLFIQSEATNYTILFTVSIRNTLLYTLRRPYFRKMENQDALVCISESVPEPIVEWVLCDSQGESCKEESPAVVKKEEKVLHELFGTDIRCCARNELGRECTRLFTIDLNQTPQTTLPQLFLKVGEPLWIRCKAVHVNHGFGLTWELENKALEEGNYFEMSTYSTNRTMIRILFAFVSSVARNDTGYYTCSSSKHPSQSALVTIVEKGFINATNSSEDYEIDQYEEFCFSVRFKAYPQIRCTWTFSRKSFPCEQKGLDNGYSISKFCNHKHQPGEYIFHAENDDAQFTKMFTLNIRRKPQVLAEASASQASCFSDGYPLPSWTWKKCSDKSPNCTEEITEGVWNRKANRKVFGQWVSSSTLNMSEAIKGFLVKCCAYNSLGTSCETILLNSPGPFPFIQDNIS
- assayNotes: SPR (Biacore T200), 37 C; IgG captured on anti-human Fc, hFLT3 as analyte
Give t1/2 for every item shown.
Answers are plain numbers, in min.

- binder: "P14G2 (IgG format) (antibody, V domains shown, IgG format, captured by anti-human Fc) VH: EVQLLESGGGLVQPGGSLRLSCAASGFTFSNYVMNWVRQAPGKGLEWVSAISGSGATTYYADSVKGRFTISRDNSKNTLYLQMNSLRAEDTAVYYCVSGLWAGGIWGQGTLVTVSS VL: DIQMTQSPSSLSASVGDRVTITCRASQSISSYLNWYQQKPGKAPKLLIYDASDLQRGVPSRFSGSGSGTDFTLTISSLQPEDFATYYCQQSYNTPWTFGQGTKVEIK"
  measurement: 10.7
- binder: "P5F7 (IgG format) (antibody, V domains shown, IgG format, captured by anti-human Fc; the VLs differ at the N-terminus; the first entry is used) VH: EVQLLESGGGLVQPGGSLRLSCAASGFTFSSYAMNWVRQAPGKGLEWVSSISGGGRSTYYADSVKGRFTISRDNSKNTLYLQMNSLRAEDTAVYYCARDLSPSDVGWGYGFDIWGQGTLVTVSS VL: EIVLTQSPATLSLSPGERATLSCRASQSVSSNLAWYQQKPGQAPRLLIYDTFTRATGIPARFSGSGSGTDFTLTISRLEPEDFAVYYCQQYGSSPPTFGQGTRLEIK"
  measurement: 76

I have this binder here, P7H3 (IgG format) (antibody, V domains shown, IgG format, captured by anti-human Fc) VH: EVQLLESGGGLVQPGGSLRLSCAASGFTFSSYAMHWVRQAPGKGLEWVSAISGSGGSTYYADSVKGRFTISRDNSKNTLYLQMNSLRAEDTAVYYCARGTRWWWGDAFDHWGQGTLVTVSS VL: QSVLTQPPSVSVAPGKTARITCGGNNIGSKSVHWYQQKPGQAPVLVIYYDSDRPSGIPERFSGSNSGNTATLTISRVEAGDEADYYCQVWDSSTAWVFGGGTKLTVL , and I need its recorded t1/2.
6.6

Provenance of the data: patent US20230059489A1
